B1: ETS1 (parent)
chain: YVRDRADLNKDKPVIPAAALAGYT

Variants of: B1
assay.overview: protein stability index of a GFP-peptide fusion (GPS, HEK-293T) (PSI 1-6); higher = more stable;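 note: lentivirally expressed fusions sorted by FACS into six bins by GFP to DsRed ratio, PSI derived from sequencing read proportions per bin multiplied by bin number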
test.context: c terminus: a fixed tail appended
Label label 1 when protein stability index is at or above 2; anything below gets label 0.

Please review the entries below; each comes with its answer.
> print(dat)
   alteration  assigned.category
1        L20T            label 1
2        K12Y            label 0
3        L20F            label 1
4        V14I            label 0

Is reported protein stability index greater than or equal to 2 here: `G22N` label 1

Try this variant next: `V14N` label 1

How about `Y23C` ? label 1

Also, `V2R` please. label 1

`P13I` , same question. label 0
